- TARGET_DESC: human recombinant CB1R (Homo sapiens (Human), UniProt P21554)
- Sequence (P21554 whole entry): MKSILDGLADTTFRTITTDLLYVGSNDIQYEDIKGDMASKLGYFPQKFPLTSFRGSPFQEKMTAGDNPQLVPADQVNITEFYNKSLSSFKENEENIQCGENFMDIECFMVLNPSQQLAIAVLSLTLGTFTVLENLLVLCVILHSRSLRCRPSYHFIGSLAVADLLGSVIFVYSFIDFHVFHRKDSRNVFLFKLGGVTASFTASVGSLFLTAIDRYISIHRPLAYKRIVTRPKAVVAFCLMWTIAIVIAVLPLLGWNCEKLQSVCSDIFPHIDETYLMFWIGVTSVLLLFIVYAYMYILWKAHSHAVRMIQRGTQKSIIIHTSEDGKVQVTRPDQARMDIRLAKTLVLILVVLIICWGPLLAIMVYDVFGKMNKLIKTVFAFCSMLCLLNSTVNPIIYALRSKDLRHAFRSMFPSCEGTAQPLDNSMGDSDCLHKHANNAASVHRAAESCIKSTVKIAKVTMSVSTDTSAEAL
- ASSAY_TEXT: CB1 receptor binding assay ([3H]CP-55,940 displacement, HEK-293 membranes)
- PARTICULARS: membranes of HEK-293 cells with human recombinant CB1R, [3H]CP-55,940; read-out: CB1 IC50
pIC50: −log10 of the molar value.
MEASURE: pIC50

COMPOUND | OBS_VALUE
N#Cc1ccc(-c2cnc3c(c2)cc(C(=O)NC2(c4ccc(F)cc4)CC2)c(=O)n3CCN2CCOCC2)nc1 | < 5.00
C[C@@H](NC(=O)c1cc2cc(Br)cnc2n(Cc2ccc(F)cc2)c1=O)c1ccc(C#N)cc1 | < 5.00
N#Cc1ccc(-c2cnc3c(c2)cc(C(=O)NC24CC(C2)C4)c(=O)n3CCN2CCOCC2)cc1 | 5.07
COc1ccc(-c2cnc3c(c2)c(O)c(C(=O)NC24CC(C2)C4)c(=O)n3CCN2CCOCC2)cc1 | < 5.00

(Q) Tell us which pIC50 value is on record for C[C@H]1CC[C@@H](NC(=O)c2c(O)c3cccnc3n(Cc3ccc(F)cc3)c2=O)CC1
(A) 5.47

(Q) Write down pIC50 measured for item COc1ccc(-c2cnc3c(c2)cc(C(=O)NC2CC4(CCC4)C2)c(=O)n3CCN2CCOCC2)cc1
(A) < 5.00

(Q) Look up pIC50 of C=C(C)c1cnc2c(c1)cc(C(=O)N[C@H](C)c1ccc(F)cc1)c(=O)n2Cc1ccc(F)cc1 and report it.
(A) < 5.00

(Q) Let me know recorded pIC50 for COc1ccc(-c2cnc3c(c2)cc(C(=O)NCc2ccc(F)cc2)c(=O)n3CCN2CCOCC2)cc1 , thanks.
(A) < 5.00

(Q) Specify pIC50 for COc1ccc(-c2cnc3c(c2)cc(C(=O)NC24CC(C2)C4)c(=O)n3CCN2CCOCC2)cc1 and stop.
(A) 5.56

(Q) Report measured pIC50; entry is CC(C)(NC(=O)c1cc2cc(-c3ccc(C#N)cn3)cnc2n(CCN2CCOCC2)c1=O)c1ccc(F)cc1
(A) < 5.00

====

- TARGET_DESC: human CB2 receptor (Homo sapiens (Human), UniProt P34972)
- Sequence (P34972 whole entry): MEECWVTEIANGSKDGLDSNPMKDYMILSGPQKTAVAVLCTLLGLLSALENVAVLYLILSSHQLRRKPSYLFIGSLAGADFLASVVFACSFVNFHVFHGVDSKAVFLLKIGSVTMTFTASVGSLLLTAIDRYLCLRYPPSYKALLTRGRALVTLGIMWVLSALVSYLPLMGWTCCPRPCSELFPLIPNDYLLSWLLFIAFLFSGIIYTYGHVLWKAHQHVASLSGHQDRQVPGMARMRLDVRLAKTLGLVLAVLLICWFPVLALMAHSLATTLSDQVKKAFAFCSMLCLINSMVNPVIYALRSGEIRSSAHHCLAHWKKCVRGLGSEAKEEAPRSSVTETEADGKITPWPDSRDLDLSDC
- ASSAY_TEXT: CB2 receptor cAMP assay (DiscoverX HitHunter cAMP XS+)
- Format: cell-based
- PARTICULARS: CHO-K1, read-out: Max Stimulation %
- Experimental: cAMP Hunter CHO-K-1 cell lines expressing human CB2 receptor (Eurofins) were expanded from freezer stocks according to standard procedures. Cells were seeded in a total volume of 20 μL into white walled, 384-well microplates and incubated at 37° C. for the appropriate time prior to testing. cAMP modulation in agonist, inverse agonist or antagonist format was determined using the DiscoverX HitHunter cAMP XS+ assay (Eurofins). […]
# Emax values compiled below
The reply should be a number in %, with the unit left off.

See these solved cases before continuing.
MOLECULE | Emax (%)
N#Cc1ccc(-c2cnc3c(c2)cc(C(=O)NC2CC4(CCC4)C2)c(=O)n3CCN2CCOCC2)nc1 [Compound 36] | 89
O=C(NC12CC(C1)C2)c1cc2cc(C3CC3)cnc2n(Cc2ccc(F)cc2)c1=O [Compound 83] | 93
CC(C)c1cnc2c(c1)cc(C(=O)N[C@H](C)c1ccc(C#N)cc1)c(=O)n2Cc1ccc(F)cc1 [Compound 85] | 93
CC(C)c1cnc2c(c1)cc(C(=O)N[C@H](C)c1ccc(F)cc1)c(=O)n2Cc1ccc(F)cc1 [Compound 89] | 92
CC(NC(=O)c1c(O)c2cc(-c3ccc(F)cc3)cnc2n(CCN2CCOCC2)c1=O)c1ccc(F)cc1 (stereo not drawn) [Compound 9] | 7

(Q) Print human CB2 receptor (Homo sapiens (Human), UniProt P34972) Emax for CC(NC(=O)c1cc2cc(-c3ccc(C#N)cc3)cnc2n(CCN2CCOCC2)c1=O)c1ccc(F)cc1 (stereo not drawn) [Compound 45] .
(A) 70

(Q) Give human CB2 receptor (Homo sapiens (Human), UniProt P34972) Emax for the following molecule: C[C@@H](NC(=O)c1cc2cc(C3CC3)cnc2n(Cc2ccc(F)cc2)c1=O)c1ccc(C#N)cc1 [Compound 95]
(A) 60

(Q) Enter Emax (test system human CB2 receptor (Homo sapiens (Human), UniProt P34972)) for CC(NC(=O)c1cc2cc(-c3ccc(C#N)cn3)cnc2n(CCN2CCOCC2)c1=O)c1ccc(F)cc1 (stereo not drawn) [Compound 58]
(A) 77

(Q) // output Emax; input O=C(NC1CC2(CCC2)C1)c1c(O)c2cc(-c3ccc(Cl)cc3)cnc2n(CCN2CCOCC2)c1=O [Compound 11] ; system human CB2 receptor (Homo sapiens (Human), UniProt P34972)
(A) 60

(Q) # lookup: human CB2 receptor (Homo sapiens (Human), UniProt P34972) Emax, key = COc1ccc(-c2cnc3c(c2)cc(C(=O)NC2CC4(COC4)C2)c(=O)n3CCN2CCOCC2)cc1 [Compound 31]
(A) 78

(Q) Report value: Emax, system: human CB2 receptor (Homo sapiens (Human), UniProt P34972), molecule: CC1CCC(NC(=O)c2cc3cc(-c4ccc(OC(F)F)cc4)cnc3n(CCN3CCOCC3)c2=O)CC1 (stereo not drawn) [Compound 51]
(A) 108

(Q) Enter measured Emax, system human CB2 receptor (Homo sapiens (Human), UniProt P34972), for the molecule shown: CC1CCC(NC(=O)c2c(O)c3cc(-c4ccc(OC(F)F)cc4)cnc3n(CCN3CCOCC3)c2=O)CC1 (stereo not drawn) [Compound 15]
(A) 75

(Q) Jot down Emax (human CB2 receptor (Homo sapiens (Human), UniProt P34972)) of O=C(NC12CC(C1)C2)c1c(O)c2cc(-c3ccc(F)cc3)cnc2n(CCN2CCOCC2)c1=O [Compound 8] .
(A) 32

(Q) Jot down Emax (human CB2 receptor (Homo sapiens (Human), UniProt P34972)) of O=C(NC1CC2(CCC2)C1)c1cc2cc(Br)cnc2n(Cc2ccc(F)cn2)c1=O [Compound 99] .
(A) 89

(Q) # return Emax for O=C(NC1CC2(CCC2)C1)c1cc2cc(-c3ccc(OC(F)F)cn3)cnc2n(CCN2CCOCC2)c1=O [Compound 47] , test system: human CB2 receptor (Homo sapiens (Human), UniProt P34972)
(A) 48
